# Organism: Homo sapiens
# EXPERIMENT NOTES: To identify inhibition of the IFN signalling (Jak-Stat) pathway via expression of an eGFP reporter gene under the control of an IFN-stimulated response element (ISRE) containing MxA promoter.
# Type: functional
# Parameters: scale not given: direction of the effect not stated beside the values
# ASSAY SETUP: 30 µM
MEASURED PROPERTY: Percent Effect (%)

# MOLECULE, MEASUREMENT UNITS, OBSERVED RESULT
rows = [
    ("CCCc1nc(NCCCO)c2c(n1)c(C)nn2CC", "%", 12.4),
    ("CC(C)CN1CCN(C(=O)Nc2cc(C(F)(F)F)c[nH]c2=O)CC1", "%", 20.1),
    ("c1ccc(COC2CCN(c3cncc(-n4cccn4)n3)CC2)cc1", "%", 14.3),
    ("CCN1CCOC(CNCc2ccccn2)C1 (stereo unspecified)", "%", -4.24),
    ("OCC1CCCN1c1cc(NCCc2c[nH]c3ccccc23)ncn1 (stereo unspecified)", "%", 35.3),
    ("CCc1nnc2n1CCN(Cc1ccc3c(c1)OCCO3)C2", "%", 28.3),
]

* * *

Measured Percent Effect, listed per entry for reference.
# MEASURED TARGET: Protein translocase subunit SecA (Escherichia coli (strain K12)) (UniProt P10408)
# Sequence (P10408 whole entry): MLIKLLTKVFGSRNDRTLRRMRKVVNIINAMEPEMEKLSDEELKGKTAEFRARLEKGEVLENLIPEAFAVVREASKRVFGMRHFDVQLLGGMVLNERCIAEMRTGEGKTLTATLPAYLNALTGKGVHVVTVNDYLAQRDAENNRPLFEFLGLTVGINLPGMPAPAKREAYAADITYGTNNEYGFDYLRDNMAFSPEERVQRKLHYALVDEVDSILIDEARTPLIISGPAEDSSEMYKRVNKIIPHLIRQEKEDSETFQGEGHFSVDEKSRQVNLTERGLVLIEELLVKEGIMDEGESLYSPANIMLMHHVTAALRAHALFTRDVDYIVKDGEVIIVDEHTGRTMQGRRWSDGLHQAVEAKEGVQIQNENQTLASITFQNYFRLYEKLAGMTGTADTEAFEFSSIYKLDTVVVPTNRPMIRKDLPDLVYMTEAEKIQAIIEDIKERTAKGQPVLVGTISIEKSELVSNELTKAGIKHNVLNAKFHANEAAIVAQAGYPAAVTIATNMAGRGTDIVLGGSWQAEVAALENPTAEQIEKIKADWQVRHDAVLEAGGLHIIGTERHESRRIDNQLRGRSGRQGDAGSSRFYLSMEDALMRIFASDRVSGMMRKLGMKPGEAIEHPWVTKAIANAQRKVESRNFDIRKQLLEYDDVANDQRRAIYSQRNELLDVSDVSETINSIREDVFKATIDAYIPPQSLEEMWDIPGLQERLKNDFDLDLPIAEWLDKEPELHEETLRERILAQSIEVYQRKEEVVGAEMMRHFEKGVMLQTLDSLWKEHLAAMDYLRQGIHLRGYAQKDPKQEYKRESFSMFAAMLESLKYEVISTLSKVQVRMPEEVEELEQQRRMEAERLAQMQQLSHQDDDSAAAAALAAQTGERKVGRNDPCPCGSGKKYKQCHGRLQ
# EXPERIMENT NOTES: Assay to Identify E. coli SecA ATPase Inhibitors
# Type: functional
# Parameters: scale not given: direction of the effect not stated beside the values
# ASSAY SETUP: 30 µM
Potency and affinity values are given separately.

# MOLECULE, MEASURED TARGET, Percent Effect [%]
measured = [
    ("O=C(NCC1CCCO1)c1c(-n2cnnn2)sc2c1CCC2 (centres undefined)", "Protein translocase subunit SecA (Escherichia coli (strain K12)) (UniProt P10408)", -5.27),
    ("CNC(=O)[C@@]12CCO[C@@H]1CCN(S(=O)(=O)c1cccnc1)C2", "Protein translocase subunit SecA (Escherichia coli (strain K12)) (UniProt P10408)", -5.53),
    ("CCc1ncc2c(n1)CN(C(=O)COC)C2", "Protein translocase subunit SecA (Escherichia coli (strain K12)) (UniProt P10408)", -3.52),
    ("Cc1cnn(CCNCC(=O)NCc2ccccc2)c1", "Protein translocase subunit SecA (Escherichia coli (strain K12)) (UniProt P10408)", -0.968),
    ("O=C(Nc1ccnc(OC2CCOC2)c1)c1cc(F)ccc1F (centres undefined)", "Protein translocase subunit SecA (Escherichia coli (strain K12)) (UniProt P10408)", -5.45),
    ("CC[C@@]1(O)CCN(C(=O)c2ccc(-c3cccc(F)c3)cc2)C[C@H]1O", "Protein translocase subunit SecA (Escherichia coli (strain K12)) (UniProt P10408)", -2.8),
    ("Cc1nc(C2CCCN(C(=O)c3cccc(S(C)(=O)=O)c3)C2)no1 (centres undefined)", "Protein translocase subunit SecA (Escherichia coli (strain K12)) (UniProt P10408)", -1.36),
    ("COCCN1CC[C@H](O)[C@@H]1Cc1ccccc1", "Protein translocase subunit SecA (Escherichia coli (strain K12)) (UniProt P10408)", -2.09),
    ("Cc1cnn(CC2CCCN2C(=O)c2nccc3ccccc23)c1 (centres undefined)", "Protein translocase subunit SecA (Escherichia coli (strain K12)) (UniProt P10408)", -3.25),
    ("c1ccc(C2CCCN2Cc2nnnn2C2CC2)cc1 (centres undefined)", "Protein translocase subunit SecA (Escherichia coli (strain K12)) (UniProt P10408)", -4.62),
    ("CN(C)c1nc2c(c(=O)[nH]1)CCN(C(=O)c1cccc3nccnc13)C2", "Protein translocase subunit SecA (Escherichia coli (strain K12)) (UniProt P10408)", 1.03),
    ("Cn1cccc1C(=O)N1CCc2ncnc(C3CC3)c2CC1", "Protein translocase subunit SecA (Escherichia coli (strain K12)) (UniProt P10408)", -4.53),
    ("Cc1cc(O)nc(C2CCCN(Cc3ccncc3)C2)n1 (centres undefined)", "Protein translocase subunit SecA (Escherichia coli (strain K12)) (UniProt P10408)", -0.276),
    ("CN(C)S(=O)(=O)N1CCC(Oc2ccccn2)CC1", "Protein translocase subunit SecA (Escherichia coli (strain K12)) (UniProt P10408)", -2.83),
    ("CC(=O)NCC(=O)N1C[C@H](OCc2cccnc2)[C@H]2COC[C@H]21", "Protein translocase subunit SecA (Escherichia coli (strain K12)) (UniProt P10408)", -4.16),
    ("COc1cccc(CCNS(=O)(=O)c2ccc(NC(C)=O)cc2)c1", "Protein translocase subunit SecA (Escherichia coli (strain K12)) (UniProt P10408)", -3.33),
    ("O=C(NCC1CC1)C1CN(C(=O)c2cccc(Cl)c2)CC12CCOCC2 (centres undefined)", "Protein translocase subunit SecA (Escherichia coli (strain K12)) (UniProt P10408)", 1.58),
    ("c1csc(-c2nc(CN3CCCC3Cn3cncn3)co2)c1 (centres undefined)", "Protein translocase subunit SecA (Escherichia coli (strain K12)) (UniProt P10408)", -2.28),
    ("Cc1cc(NC(=O)CN2CCN(c3nccs3)C(C)C2)n(C)n1 (centres undefined)", "Protein translocase subunit SecA (Escherichia coli (strain K12)) (UniProt P10408)", -1.17),
    ("CC(C)CCN1CN=C(NS(=O)(=O)c2ccc(F)cc2)NC1", "Protein translocase subunit SecA (Escherichia coli (strain K12)) (UniProt P10408)", -1.41),
    ("Cc1nc(C)n(CC2CN(Cc3cccnc3)CCO2)n1 (centres undefined)", "Protein translocase subunit SecA (Escherichia coli (strain K12)) (UniProt P10408)", -3.52),
    ("Cc1cnn(C2CCCN(C(=O)c3cccc(Cn4ccnc4)c3)C2)c1 (centres undefined)", "Protein translocase subunit SecA (Escherichia coli (strain K12)) (UniProt P10408)", -1.7),
    ("c1cnn(CC2CCCCN2c2ncnc3sccc23)c1 (centres undefined)", "Protein translocase subunit SecA (Escherichia coli (strain K12)) (UniProt P10408)", -7.65),
    ("Cc1ccsc1CN(CCN(C)C)Cc1ccccn1", "Protein translocase subunit SecA (Escherichia coli (strain K12)) (UniProt P10408)", -5.5),
    ("COC(=O)c1cccn1C1CCN(C(=O)c2cc(F)ccc2F)CC1", "Protein translocase subunit SecA (Escherichia coli (strain K12)) (UniProt P10408)", -4.16),
    ("COCCN1CCCC(O)(CN2CCN(c3ncccc3C)CC2)C1=O (centres undefined)", "Protein translocase subunit SecA (Escherichia coli (strain K12)) (UniProt P10408)", 5.28),
    ("CCN(Cc1nc(C(C)C)no1)Cc1cccs1", "Protein translocase subunit SecA (Escherichia coli (strain K12)) (UniProt P10408)", -3.02),
    ("Fc1ccc(CN2CCC(c3n[nH]c4nccnc34)CC2)cc1F", "Protein translocase subunit SecA (Escherichia coli (strain K12)) (UniProt P10408)", -3.35),
    ("Cc1nc(NCc2ccc(C)o2)cc(C(=O)N2CCOCC2)n1", "Protein translocase subunit SecA (Escherichia coli (strain K12)) (UniProt P10408)", -5.2),
    ("CCOc1ncccc1NC(=O)c1cc2c(s1)CCC2", "Protein translocase subunit SecA (Escherichia coli (strain K12)) (UniProt P10408)", 1.48),
    ("CC(C)OCCCNC(=O)CN1CCC(N2CCN(C)C2=O)CC1", "Protein translocase subunit SecA (Escherichia coli (strain K12)) (UniProt P10408)", -4.79),
    ("CC(Cn1cccn1)NC(=O)Nc1ccc(N(C)C)nc1 (centres undefined)", "Protein translocase subunit SecA (Escherichia coli (strain K12)) (UniProt P10408)", -4.33),
    ("CNc1nc(CNC(=O)Nc2ccccc2-c2noc(C)n2)cs1", "Protein translocase subunit SecA (Escherichia coli (strain K12)) (UniProt P10408)", -1.81),
    ("Cc1cccnc1CNc1cc(N2CCCC2CO)ncn1 (centres undefined)", "Protein translocase subunit SecA (Escherichia coli (strain K12)) (UniProt P10408)", -2.07),
    ("COc1ccc(NCc2nc(=O)n(CCC(C)C)[nH]2)cc1", "Protein translocase subunit SecA (Escherichia coli (strain K12)) (UniProt P10408)", -3.47),
    ("COc1nn(C)c2c1CCCN(C(=O)c1ccccc1)C2", "Protein translocase subunit SecA (Escherichia coli (strain K12)) (UniProt P10408)", -4.93),
    ("CCn1cnnc1CNC(=O)N1CCN(Cc2ccccc2)CC1", "Protein translocase subunit SecA (Escherichia coli (strain K12)) (UniProt P10408)", -4.19),
    ("Cc1occc1C(=O)N1CCC2(CCN(Cc3nccs3)C2)CC1", "Protein translocase subunit SecA (Escherichia coli (strain K12)) (UniProt P10408)", -3.24),
    ("COCCCNC(=O)NCc1ccc(C)cc1", "Protein translocase subunit SecA (Escherichia coli (strain K12)) (UniProt P10408)", -4.5),
    ("CCOc1cc(C)nc(N2CCN(C(=O)c3ccc[nH]3)CC2)n1", "Protein translocase subunit SecA (Escherichia coli (strain K12)) (UniProt P10408)", -3.03),
    ("c1ccc(-n2cc(CN3CCCC(Cn4cncn4)C3)nn2)cc1 (centres undefined)", "Protein translocase subunit SecA (Escherichia coli (strain K12)) (UniProt P10408)", -2.56),
    ("c1ccc(-c2nccc(CNCC3CCCN3c3cccnn3)n2)cc1 (centres undefined)", "Protein translocase subunit SecA (Escherichia coli (strain K12)) (UniProt P10408)", -3.71),
    ("O=C(Cn1cc(C(=O)O)ccc1=O)Nc1ccc(Cl)cc1F", "Protein translocase subunit SecA (Escherichia coli (strain K12)) (UniProt P10408)", -1.04),
    ("Cc1noc(C(C)C)c1C(=O)NCC(c1cccc(F)c1)N(C)C (centres undefined)", "Protein translocase subunit SecA (Escherichia coli (strain K12)) (UniProt P10408)", 0.211),
    ("COc1cc(C)ccc1OCCC(=O)N1CCCC1Cn1cccn1 (centres undefined)", "Protein translocase subunit SecA (Escherichia coli (strain K12)) (UniProt P10408)", -6.85),
    ("O=C(NCCc1nnc2n1CCC2)NC1(c2cccc(F)c2)CC1", "Protein translocase subunit SecA (Escherichia coli (strain K12)) (UniProt P10408)", -3.06),
    ("Cn1cc(-c2cnc(N3CCOCC3)nc2)cc1C(=O)N1CCOCC1", "Protein translocase subunit SecA (Escherichia coli (strain K12)) (UniProt P10408)", -2.41),
    ("Cn1ncc2c(=O)[nH]c(CN3CCCC3c3cccs3)nc21 (centres undefined)", "Protein translocase subunit SecA (Escherichia coli (strain K12)) (UniProt P10408)", -2.36),
    ("O=C(C1CCCCN1Cc1nc(-c2ccco2)no1)N1CCCC1 (centres undefined)", "Protein translocase subunit SecA (Escherichia coli (strain K12)) (UniProt P10408)", -8.23),
]
